Reference source for all entries: patent US20200024330A1

- assayed_system: HIV-1 Env of isolate 92WR021 (HIV-1)
- assay: cell-based or functional assay

{"columns": ["binder", "IC50 (µg/mL), pseudovirus neutralization"],
 "data": [
  ["PGT-127 (antibody, V domains shown) VH: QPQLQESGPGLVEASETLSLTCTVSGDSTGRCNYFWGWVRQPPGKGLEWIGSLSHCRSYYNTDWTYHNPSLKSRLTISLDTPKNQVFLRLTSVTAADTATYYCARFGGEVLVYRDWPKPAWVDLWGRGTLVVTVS VL: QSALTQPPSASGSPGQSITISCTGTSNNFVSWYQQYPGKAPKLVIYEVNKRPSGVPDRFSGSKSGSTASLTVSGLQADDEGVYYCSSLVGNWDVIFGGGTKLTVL", 0.011],
  ["PGT-123 (antibody, V domains shown) VH: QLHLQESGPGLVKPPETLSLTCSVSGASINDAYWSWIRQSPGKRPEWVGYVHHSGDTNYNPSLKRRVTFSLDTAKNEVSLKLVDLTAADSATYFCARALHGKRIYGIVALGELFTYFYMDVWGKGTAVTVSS VL: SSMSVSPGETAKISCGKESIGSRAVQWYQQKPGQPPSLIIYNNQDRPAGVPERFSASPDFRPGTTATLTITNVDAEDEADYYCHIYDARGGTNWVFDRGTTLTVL", 0.005],
  ["PGT-126 (antibody, V domains shown) VH: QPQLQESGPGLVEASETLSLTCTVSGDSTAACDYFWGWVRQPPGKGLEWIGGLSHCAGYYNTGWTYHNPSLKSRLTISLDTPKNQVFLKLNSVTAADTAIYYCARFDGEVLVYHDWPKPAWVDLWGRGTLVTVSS VL: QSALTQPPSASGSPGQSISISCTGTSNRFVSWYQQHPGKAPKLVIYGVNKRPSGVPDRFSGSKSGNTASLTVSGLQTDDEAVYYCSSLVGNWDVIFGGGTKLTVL", 0.006],
  ["PGT-125 (antibody, V domains shown) VH: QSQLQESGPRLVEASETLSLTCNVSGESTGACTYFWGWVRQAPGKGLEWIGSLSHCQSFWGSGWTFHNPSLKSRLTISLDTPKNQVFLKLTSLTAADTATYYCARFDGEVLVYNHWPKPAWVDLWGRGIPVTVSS VL: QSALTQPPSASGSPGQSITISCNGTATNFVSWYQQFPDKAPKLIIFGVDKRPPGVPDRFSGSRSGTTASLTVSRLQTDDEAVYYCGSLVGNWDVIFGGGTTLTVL", 0.005]
]}
